Entry source: the Human Domainome abundance scans (Beltran et al. 2025)

B1: POU domain, class 2, transcription factor 1, residues 285 to 354; numbered along this chain, P14859 (parent)
chain: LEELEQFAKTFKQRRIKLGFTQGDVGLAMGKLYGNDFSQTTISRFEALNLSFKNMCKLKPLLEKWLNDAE

- Variants of: B1
- protocol-summary: abundance fitness (aPCA) (normalised: wild type 0, dead -1); higher = more abundant; growth selection in yeast, the domain comes from the species named
- protocol-conditions: Homo sapiens
# abundance fitness >= -0.05 gives class 1, anything below gives class 0

// inclusive: abundance fitness at least -0.05? input: LEELEQFAKTFKQRRIKLGFTQGDVGLAMGKLYGNDFSQTTISRFEALNLSHKNMCKLKPLLEKWLNDAE [F52H] class 1

IEELEQFAKTFKQRRIKLGFTQGDVGLAMGKLYGNDFSQTTISRFEALNLSFKNMCKLKPLLEKWLNDAE [L1I] ? class 1

LERLEQFAKTFKQRRIKLGFTQGDVGLAMGKLYGNDFSQTTISRFEALNLSFKNMCKLKPLLEKWLNDAE [E3R] ? class 0

LEELEQFAKTFKQRRIKLGFTQGDVGLAMGKLYGPDFSQTTISRFEALNLSFKNMCKLKPLLEKWLNDAE [N35P] ? class 1

LEELEQFAKTFKQRRGKLGFTQGDVGLAMGKLYGNDFSQTTISRFEALNLSFKNMCKLKPLLEKWLNDAE [I16G] ? class 0

LEELEQFAKTFKQRRIKLGFTQGDVGLAMGKLYGNDFSQTTIIRFEALNLSFKNMCKLKPLLEKWLNDAE [S43I] ? class 0

LEELEQFAKTFKQRRIKLGFTQGDVGLAMTKLYGNDFSQTTISRFEALNLSFKNMCKLKPLLEKWLNDAE [G30T] ? class 1

LEELEQFAKTFKQRRIKLGFTQGDVGLAMGKLGGNDFSQTTISRFEALNLSFKNMCKLKPLLEKWLNDAE [Y33G] ? class 0

LEELEQFAKTFKQRRIKLGFTQGDVLLAMGKLYGNDFSQTTISRFEALNLSFKNMCKLKPLLEKWLNDAE [G26L] ? class 0
